Data provenance: paper PMC5540273

Listing of recorded %Inh by entry.
- Test system: WNK2;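 note: KINOMEscan kinase panel screen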
- particulars: concentration: 1 μM, replicates: in singlicate; n = 1
Answer format: number, then unit.

Example results:
smiles-structure	assay-readout	result
Cl.NS(=O)(=O)c1cccc(Nc2cc(-c3ccc(F)cc3)n[nH]2)c1	%Inh	0%
Nc1nccc2scc(-c3ccc4c(c3)CCN4C(=O)Cc3ccccc3)c12	%Inh	26%

### Prompt Quick check: %Inh of CC(C)(C)c1ccc(C(=O)Nc2cn3cc(-c4ccccc4)ccc3n2)cc1 ?
### Response 0%

### Prompt Quick check: %Inh of CCn1c(-c2nonc2N)nc2ccccc21 ?
### Response 39%
